So I've got a bunch of compounds here, and I need their pKa values.
- assay.protocol: Dissociation constant, pKa of compound
- Assay type: physicochemical
One number for each entry.

Reported pKa, compound COCCOc1cccc([C@H](CC(=O)O)CN2CC[C@@](F)(CCc3ccc4c(n3)NCCC4)C2)c1 : ____ 4.1

Now the same for COCCOc1cccc([C@H](CC(=O)O)CN2CC(C(F)(F)CCc3ccc4c(n3)NCCC4)C2)c1 3.9

Now the same for COc1cc([C@H](CC(=O)O)CN2CC(C(F)(F)CCc3ccc4c(n3)NCCC4)C2)ccc1F 4

Now the same for COCCOc1cccc(C(CC(=O)O)CN2CC(OCc3ccc4c(n3)NCCC4)C2)c1 (racemic) 4

Next:
Reported pKa, compound COCCOc1cccc([C@H](CC(=O)O)CN2CC(SCCc3ccc4c(n3)NCCC4)C2)c1 : ____ 4.3

----------
- assay.protocol: Volume of distribution at steady state in Wistar Han rat at 1 mg/kg, iv at 7 to 24 hrs by LC-MS/MS analysis
- Type: ADME, organism-based
- conditions: in vivo, time 7-24 hrs, read-out: Vdss
measured.parameter: Vd (L/kg)
Give bare numbers, in L/kg.

Could I get Vd for every one of these entries?
1. COc1cc(C(CC(=O)O)CN2CC(C(F)(F)CCc3ccc4c(n3)NCCC4)C2)ccc1F (racemic)
2. COc1ccc(F)c(C(CC(=O)O)CN2CC(C(F)(F)CCc3ccc4c(n3)NCCC4)C2)c1 (racemic)
3. Cc1cc(C)n(-c2cccc(C(CC(=O)O)CN3CC(C(F)(F)CCc4ccc5c(n4)NCCC5)C3)c2)n1 (racemic)
4. COCCOc1cccc([C@H](CC(=O)O)CN2CC(C(F)(F)CCc3ccc4c(n3)NCCC4)C2)c1

[2.4, 1.6, 0.7, 3]

----------
- assay.protocol: in vitro
- conditions: PAMPA
Mark TRUE only when Papp stays strictly below 20 ×10⁻⁶ cm/s. Values equal to the cut-off are FALSE.

Please review the following examples before continuing.
Does the reported Papp of the following compound sit strictly below 20 ×10⁻⁶ cm/s? COCCOc1cccc([C@H](CC(=O)O)CN2CC[C@@](F)(CCc3ccc4c(n3)NCCC4)C2)c1 TRUE

Now the same for COc1cc(C(CC(=O)O)CN2CC(C(F)(F)CCc3ccc4c(n3)NCCC4)C2)ccc1C#N (racemic) TRUE

Now the same for O=C(O)C[C@H](CN1CC(CCc2ccc3c(n2)NCCC3)C1)c1cccc(N2CCOCC2)c1 TRUE

Now the same for O=C(O)C[C@H](CN1CC[C@@H](CCc2ccc3c(n2)NCCC3)C1)c1cccc(N2CCOCC2)c1 TRUE

Now the same for O=C(O)CC(CN1CC(C(F)(F)CCc2ccc3c(n2)NCCC3)C1)c1ccccc1 (racemic) FALSE

Now the same for Cc1cc(C)n(-c2cccc([C@H](CC(=O)O)CN3CC(CCCc4ccc5c(n4)NCCC5)C3)c2)n1 TRUE

Now the same for COc1cc([C@H](CC(=O)O)CN2CC(C(F)(F)CCc3ccc4c(n3)NCCC4)C2)ccc1F TRUE

Now the same for O=C(O)CC(CN1CC(C(F)(F)CCc2ccc3c(n2)NCCC3)C1)c1cccc(C2CC2)c1 (racemic) FALSE

Now the same for COCCOc1cccc([C@H](CC(=O)O)CN2CC(SCCc3ccc4c(n3)NCCC4)C2)c1 TRUE

Now the same for COc1ccc(F)c(C(CC(=O)O)CN2CC(C(F)(F)CCc3ccc4c(n3)NCCC4)C2)c1 (racemic) FALSE

Next:
Does the reported Papp of the following compound sit strictly below 20 ×10⁻⁶ cm/s? COc1ncc(C(CC(=O)O)CN2CC(C(F)(F)CCc3ccc4c(n3)NCCC4)C2)cc1C (racemic) TRUE

Now the same for O=C(O)CC(CN1CC(C(F)(F)CCc2ccc3c(n2)NCCC3)C1)c1cccc(O[C@H]2CCOC2)c1 (mixture of isomers) TRUE

Now the same for COc1cc(C(CC(=O)O)CN2CC(C(F)(F)CCc3ccc4c(n3)NCCC4)C2)ccc1F (racemic) FALSE

Now the same for CCOc1cccc(C(CC(=O)O)CN2CC(C(F)(F)CCc3ccc4c(n3)NCCC4)C2)c1 (racemic) FALSE

Now the same for O=C(O)CC(CN1CC(C(F)(F)CCc2ccc3c(n2)NCCC3)C1)c1cccc(OC2CCOCC2)c1 (racemic) TRUE

Now the same for COCCOc1cccc([C@H](CC(=O)O)CN2CC(C(F)(F)CCc3ccc4c(n3)NCCC4)C2)c1 TRUE

All figures here come from ChEMBL document CHEMBL6083250.
